# Test system: Proteus vulgaris HX 19
# protocol: Minimum Inhibitory Concentration, Proteus vulgaris HX 19
# Type: cell-based
# settings: HX19; Proteus vulgaris HX 19; read-out: Minimum Inhibitory Concentration
# Experimental: anti-microbial activity tests were carried out on the compounds obtained in the Examples.
// MIC lookup, one value per entry

>  <molecule>
O=C(O)C1=C(CSc2cnn[nH]2)CSC2C(NC(=O)C(NC(=O)c3cnc4cccnc4c3O)c3cccc(O)c3)C(=O)N12 (stereo not shown)

>  <MIC [µg/mL]>
0.1

$$$$
>  <molecule>
CC(=O)OCC1=C(C(=O)O)N2C(=O)C(NC(=O)C(NC(=O)c3ccnnc3O)c3ccc(N)cc3)C2SC1 (stereo not shown)

>  <MIC [µg/mL]>
0.2

$$$$
>  <molecule>
Nc1cccc([C@@H](NC(=O)c2cnc3cccnc3c2O)C(=O)NC2C(=O)N3C(C(=O)O)=C(CSc4nncs4)CSC23)c1 (stereo partly shown)

>  <MIC [µg/mL]>
0.1

$$$$
>  <molecule>
Cn1nnnc1SCC1=C(C(=O)O)N2C(=O)C(NC(=O)C(NC(=O)c3cnc4ccc(O)nc4c3O)c3ccc(O)cc3)C2SC1 (stereo not shown)

>  <MIC [µg/mL]>
0.39

$$$$
>  <molecule>
Cn1nnnc1SCC1=C(C(=O)O)N2C(=O)C(NC(=O)C(NC(=O)c3cnc4cncnc4c3O)c3ccc(CO)cc3)C2SC1 (stereo not shown)

>  <MIC [µg/mL]>
0.2

$$$$
>  <molecule>
NC(=O)Nc1cccc([C@@H](NC(=O)c2cnc3cccnc3c2O)C(=O)N[C@@H]2C(=O)N3C(C(=O)O)=C(CSc4ccc(O)nn4)CS[C@H]23)c1

>  <MIC [µg/mL]>
0.2

$$$$
>  <molecule>
CN(C)c1ccc2ncc(C(=O)N[C@@H](C(=O)N[C@@H]3C(=O)N4C(C(=O)O)=C(CSc5cnn[nH]5)CS[C@H]34)c3ccc(NC(N)=O)cc3)c(O)c2n1

>  <MIC [µg/mL]>
0.2

$$$$
>  <molecule>
CNc1nnc(SCC2=C(C(=O)O)N3C(=O)C(NC(=O)[C@H](NC(=O)c4cnc5cccnc5c4O)c4ccc(O)cc4)C3SC2)s1 (stereo partly shown)

>  <MIC [µg/mL]>
0.2

$$$$
>  <molecule>
Nc1cccc(C(NC(=O)c2cnc3cccnc3c2O)C(=O)NC2C(=O)N3C(C(=O)O)=C(CSc4ccc(O)nn4)CSC23)c1 (stereo not shown)

>  <MIC [µg/mL]>
0.2

$$$$
>  <molecule>
NC(=O)Nc1cccc(C(NC(=O)c2ccnnc2O)C(=O)NC2C(=O)N3C(C(=O)O)=C(CSc4nnc(CO)s4)CSC23)c1 (stereo not shown)

>  <MIC [µg/mL]>
0.78

$$$$
>  <molecule>
CC(=O)OCC1=C(C(=O)O)N2C(=O)[C@@H](NC(=O)[C@H](NC(=O)c3cccnc3O)c3ccc(NC(N)=O)cc3)[C@H]2SC1

>  <MIC [µg/mL]>
0.39

$$$$
>  <molecule>
CC(=O)OCC1=C(C(=O)O)N2C(=O)[C@@H](NC(=O)[C@H](NC(=O)c3cnc4nc(C)ccc4c3O)c3ccc(NC(N)=O)cc3)[C@H]2SC1

>  <MIC [µg/mL]>
0.39

$$$$
>  <molecule>
Cc1nnc(SCC2=C(C(=O)O)N3C(=O)C(NC(=O)C(NC(=O)c4cnccc4O)c4ccc(CO)cc4)C3SC2)s1 (racemic)

>  <MIC [µg/mL]>
0.39

$$$$
